# assay.system: T1, PUF4 RNA-binding domain (Saccharomyces cerevisiae, UniProt P25339 537-888)
# T1 sequence: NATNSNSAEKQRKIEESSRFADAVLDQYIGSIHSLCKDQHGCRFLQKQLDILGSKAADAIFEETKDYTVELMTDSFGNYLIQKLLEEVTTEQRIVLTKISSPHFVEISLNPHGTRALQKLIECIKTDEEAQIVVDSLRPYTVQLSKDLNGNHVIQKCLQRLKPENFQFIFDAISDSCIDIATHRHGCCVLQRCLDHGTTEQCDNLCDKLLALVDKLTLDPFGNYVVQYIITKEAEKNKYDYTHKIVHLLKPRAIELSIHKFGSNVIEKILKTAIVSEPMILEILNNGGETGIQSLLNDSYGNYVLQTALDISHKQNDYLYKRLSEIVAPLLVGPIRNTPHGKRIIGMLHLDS
# assay.remarks: Mg; RNA-MaP; 20 mM Na-HEPES pH 7.4, 30 mM KOAc, 0.75 mM MgCl2, 0.1% Tween-20, 5% glycerol, 0.1 mg/mL BSA, 2 mM DTT; 25 C; 0.0125-409.6 nM protein
# test.context: tags: N-His6-TEV cleaved; C-SNAP kept, Cy3B-labelled; label: tethered on chip by stalled RNA polymerase
quantity: log10(Kd) (log10 of the value in nM)
Scale: decimal log of Kd, Kd in nM.

For orientation, consider the following solved cases.
binder | log10(Kd)
Ic_S4_P4E.1_K4.1_C4.1_H4.1_A4.1_[T5G]_[A6T]_[T7G]_F4.1_T4.1 (ssRNA) RNA: UUUGACAACUGAUCGUUCUUUCUUGUAGUGUAUUCUUUCUCGAUCAGUUGUCUUU | 1.08
Ic_S2_P5E.1_K5.1_C5.1_H5.1_A5.1_[T5A]_[T6A]_[A7T]_F5.1_[A10T]_T5.1 (ssRNA) RNA: UUUGAUUAAUAUGAUAUCGUUCUUUCUUGUAAAUUUUUUCUUUCUCGAUAUCAUAUUAAUCUUU | 1.24
Id_i_S2_P3E.5_K3.1_C3.3_[T-3A]_[C-2A]_[T-1C]_H3.1_A3.1_F3.1_T3.2 (ssRNA) RNA: UUUGAUUAAUAUGAUAUCGUUCUUUCUAACUGUAUAUAUAUUCUUUCUCGAUAUCAUAUUAAUCUUU | 0.14
UCUCUUUGUACUCUCGUCUCUU (ssRNA) [Ic_S1_P5E.1_K5.1_C5.1_H5.1_A5.1_[T5C]_[A7C]_F5.1_[T9C]_[A10G]_T5.1] | 1.85

The measured log10(Kd) associated with Ie_S2_P5E.1_K5.1_C5.1_H5.1_A5.1_F5.1_[+9TCTCT]_T5.1 (ssRNA) RNA: UUUGAUUAAUAUGAUAUCGUUCUUUCUUGUAUUAUUUCUCUAUUCUUUCUCGAUAUCAUAUUAAUCUUU reads 0.84

The measured log10(Kd) associated with UCUCUUCCUGUAUAUACGUCUCUU (ssRNA) [Id_ii_S1_P3E.2_K3.1_C3.2_[T-1C]_H3.1_A3.1_F3.1_T3.2_[T9C]_[A10G]] reads 1.24

The measured log10(Kd) associated with UCUCUUUGUAUUUUCAUCUCUU (ssRNA) [Ic_S1_P5E.1_K5.1_C5.1_H5.1_A5.1_[A7T]_F5.1_[T9C]_T5.1] reads 1.51
